test.system: T1, soluble αVβ6 headpiece, disulfide-linked (αV headpiece residues 1-594 with M400C); β6 headpiece residues 1-474 … (UniProt P06756 31-624; P18564 18-491, Interchain disulfide between αV Cys-400 and β6 Cys-270.)
T1 alpha: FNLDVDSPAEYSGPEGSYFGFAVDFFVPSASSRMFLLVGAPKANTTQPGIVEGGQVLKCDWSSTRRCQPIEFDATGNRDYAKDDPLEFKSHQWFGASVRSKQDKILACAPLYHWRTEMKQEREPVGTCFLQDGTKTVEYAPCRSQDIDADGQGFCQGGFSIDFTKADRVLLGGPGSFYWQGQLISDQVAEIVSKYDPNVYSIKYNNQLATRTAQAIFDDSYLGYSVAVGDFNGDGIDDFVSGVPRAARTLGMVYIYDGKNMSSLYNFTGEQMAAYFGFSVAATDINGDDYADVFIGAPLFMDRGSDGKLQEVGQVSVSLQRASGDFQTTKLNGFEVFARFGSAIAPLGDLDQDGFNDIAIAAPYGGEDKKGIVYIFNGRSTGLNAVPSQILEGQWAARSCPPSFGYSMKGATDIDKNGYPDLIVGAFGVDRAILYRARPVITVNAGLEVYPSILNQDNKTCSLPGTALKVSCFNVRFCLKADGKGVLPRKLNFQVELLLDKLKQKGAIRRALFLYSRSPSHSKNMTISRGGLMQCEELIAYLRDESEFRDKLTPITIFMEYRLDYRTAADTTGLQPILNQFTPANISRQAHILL
T1 beta: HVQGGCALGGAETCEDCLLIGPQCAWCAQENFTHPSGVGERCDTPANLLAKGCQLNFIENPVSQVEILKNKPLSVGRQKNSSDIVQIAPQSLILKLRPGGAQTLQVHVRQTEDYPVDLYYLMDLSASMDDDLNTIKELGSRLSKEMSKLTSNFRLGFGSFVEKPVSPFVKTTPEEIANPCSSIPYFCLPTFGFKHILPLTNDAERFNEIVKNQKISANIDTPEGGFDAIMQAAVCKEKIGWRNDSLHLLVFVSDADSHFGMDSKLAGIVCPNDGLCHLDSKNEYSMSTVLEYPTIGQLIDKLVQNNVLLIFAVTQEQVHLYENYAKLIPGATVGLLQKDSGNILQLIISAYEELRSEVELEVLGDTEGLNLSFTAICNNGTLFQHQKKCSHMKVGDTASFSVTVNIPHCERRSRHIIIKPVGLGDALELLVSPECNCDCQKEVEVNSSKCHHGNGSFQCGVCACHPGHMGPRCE
assay.info: fluorescence anisotropy; pH 6.0
Ends that are not written are not given here. * marks the point of attachment. FITC = O=C1OC2(c3ccc(O)cc3Oc3cc(O)ccc32)c2ccc(NC(=S)*)cc21
quantity: pKd
pKd (log units): -log10 of the concentration in mol/L.

# get_value(readout='pKd', item= {FITC}-GRGDLGRL (also called the probe) [FITC-GRGDLGRL (FITC-pro-TGF-β3 peptide, fluorescence probe)] )
5.70
